Each entry below carries its measured IC50, system: Aldo-keto reductase family 1 member B1 (Rattus norvegicus).

// below: answered compounds
| Input smiles | IC50 |
| --- | --- |
| O=C(c1ccc(-c2ccccc2)cc1)c1cccn1-c1cnn(O)c1 | 9.81 µM |
| O=C(O)Cn1cccc1C(=O)c1ccccc1 | 22 µM |
| COc1ccc(C(=O)c2ccn(-c3cnn(O)c3)c2)cc1 | 0.708 µM |
| O=C(O)Cn1cccc1C(=O)c1ccc(-c2ccccc2)cc1 | 7 µM |

Report IC50 for each item below.
1. O=C(c1ccc(-c2ccccc2)cc1)c1ccn(-c2cnn(O)c2)c1
2. O=C(O)Cn1ccc(C(=O)c2ccc(-c3ccccc3)cc2)c1

Reply |
1. 0.698 µM
2. 0.344 µM

* * *

Task for the reader: assign each of the following compounds its reported IC50.
molecular target: Aldo-keto reductase family 1 member A1 (Rattus norvegicus, UniProt P51635); assay: Inhibition of partially purified Fischer-344 rat kidney ALR1 using D,L-glycuronate as substrate assessed as NADPH consumption by spectrophotometry
Sequence (P51635 whole entry, looked up): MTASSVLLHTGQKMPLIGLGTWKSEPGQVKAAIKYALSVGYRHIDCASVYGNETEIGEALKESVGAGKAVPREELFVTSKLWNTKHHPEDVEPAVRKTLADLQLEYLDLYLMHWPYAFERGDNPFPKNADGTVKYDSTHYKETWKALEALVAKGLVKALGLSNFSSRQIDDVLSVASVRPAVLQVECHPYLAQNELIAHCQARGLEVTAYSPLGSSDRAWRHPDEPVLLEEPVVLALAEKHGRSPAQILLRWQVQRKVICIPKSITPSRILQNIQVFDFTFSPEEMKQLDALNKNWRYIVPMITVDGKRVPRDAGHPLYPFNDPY

// below: answered compounds
| Input smiles | Recorded measurement |
| --- | --- |
| O=C(c1ccccc1)c1ccn(-c2cnn(O)c2)c1 | 10.8 µM |
| O=C(c1ccc(-c2ccccc2)cc1)c1cccn1-c1cnn(O)c1 | > 100 µM |

Consider now this further compound.
Ask | Request the reported IC50 associated with O=C(c1ccccc1)c1cccn1-c1cnn(O)c1
Reply | > 100 µM
